Biological target: α-1d adrenoreceptor (Rattus norvegicus)
Sequence (P23944 1-561): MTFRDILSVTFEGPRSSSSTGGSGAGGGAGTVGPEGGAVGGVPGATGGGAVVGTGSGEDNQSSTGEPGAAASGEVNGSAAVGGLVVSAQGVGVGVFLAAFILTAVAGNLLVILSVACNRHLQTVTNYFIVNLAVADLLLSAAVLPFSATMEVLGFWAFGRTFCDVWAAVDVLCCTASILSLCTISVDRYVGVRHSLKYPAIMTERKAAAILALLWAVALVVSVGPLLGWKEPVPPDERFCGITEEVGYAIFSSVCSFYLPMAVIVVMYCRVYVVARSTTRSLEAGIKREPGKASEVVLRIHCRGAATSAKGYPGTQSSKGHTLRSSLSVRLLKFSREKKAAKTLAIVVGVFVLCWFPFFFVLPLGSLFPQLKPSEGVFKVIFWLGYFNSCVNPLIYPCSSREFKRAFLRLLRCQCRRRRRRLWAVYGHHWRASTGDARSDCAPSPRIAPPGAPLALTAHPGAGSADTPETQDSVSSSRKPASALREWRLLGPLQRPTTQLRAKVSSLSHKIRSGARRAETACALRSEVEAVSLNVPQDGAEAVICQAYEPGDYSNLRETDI
Assay: biochemical
Format: binding
Details: [3H]-prazosin radioligand; cloned receptor in LTK cell membranes; read-out: Radioligand Binding (Ki, nM) 1d (Rat)
Structures can show the parent of a compound that is named as a salt.
Quick reference for Ki among some compounds
MEASURED QUANTITY: Ki (nM)

>>> obs_value("COc1cnc2sc3c(=O)n(CCCCN4CC5COc6cccc(OC)c6[C@@H]5C4)c(=O)[nH]c3c2n1.Cl (stereo in doubt) [Example 43, hydrochloride]")
0.063
>>> obs_value("COc1cnc2sc3c(=O)n(CCCCN4CC[C@H]5c6c(OC)cccc6OC[C@@H]5C4)c(=O)[nH]c3c2n1 [Example 99, hydrochloride]")
5.81
>>> obs_value("COc1cccc2c1[C@@H]1CN(CCCCn3c(=O)[nH]c4c(sc5ccncc54)c3=O)C[C@H]1CO2 [Example 41, dihydrochloride]")
0.041
>>> obs_value("COc1cccc2c1[C@@H]1CN(CCCCn3c(=O)[nH]c4c(sc5c(OC)ccnc54)c3=O)C[C@@H]1CO2 [Example 18, dihydrochloride]")
0.79
>>> obs_value("COc1cccc2c1[C@H]1CN(CCCCn3c(=O)[nH]c4c(sc5c(Cl)ccnc54)c3=O)C[C@@H]1CO2 [Example 5, dihydrochloride]")
0.638
>>> obs_value("COc1cccc2c1[C@@H]1CN(CCCCn3c(=O)[nH]c4c(sc5c(Cl)ccnc54)c3=O)C[C@H]1CO2 [Example 19, hydrochloride]")
0.108
